meta.source: patent US20230183319A1

A collection of binders and their measured Kd
Target: L38Q
Experiment: SPR; 25C
PARAMETER_MEASURED: Kd

INSERT INTO assay_data (binder, parameter_measured, reported) VALUES
  ('BMP10 (ligand) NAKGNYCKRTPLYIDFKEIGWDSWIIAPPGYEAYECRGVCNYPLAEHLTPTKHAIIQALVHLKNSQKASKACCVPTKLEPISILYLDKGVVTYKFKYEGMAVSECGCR', 'Kd', '0.089 nM'),
  ('BMP9 (ligand) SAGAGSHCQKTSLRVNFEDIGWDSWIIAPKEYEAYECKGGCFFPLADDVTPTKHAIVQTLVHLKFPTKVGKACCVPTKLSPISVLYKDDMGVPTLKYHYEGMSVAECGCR', 'Kd', '0.033 nM'),
  ('Activin A (ligand) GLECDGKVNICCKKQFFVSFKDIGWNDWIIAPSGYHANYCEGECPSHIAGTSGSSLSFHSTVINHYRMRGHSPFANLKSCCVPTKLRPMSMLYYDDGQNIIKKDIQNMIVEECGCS', 'Kd', '0.2 nM'),
  ('GDF11 (ligand) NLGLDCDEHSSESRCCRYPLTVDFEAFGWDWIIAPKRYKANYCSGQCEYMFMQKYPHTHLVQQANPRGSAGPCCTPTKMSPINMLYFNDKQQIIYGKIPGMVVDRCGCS', 'Kd', '0.021 nM');
